melting point values for the compounds below.
Dear colleague, please return just the value in °C, with no unit written.

Answered cases to consult:
molecule: NC(=O)c1cccc(Cc2c[nH]cn2)c1O
melting point, °C: 198
//
molecule: COc1cc(O)ccc1OCc1ccccc1
melting point, °C: 84
//
molecule: COC(=O)c1ccc(S(=O)(=O)Cc2c(O[C@H](Cn3ccnc3)c3ccccc3)ccc3c2CCCC3=O)cc1
melting point, °C: 105
//
molecule: COc1ccc2cc(-c3ccc(Cl)c(-n4nc(C)c(C)n4)c3)c(=O)oc2c1
melting point, °C: 180

Which melting point value is on record for `C#CCOc1ccc(C(=O)OC)c(OC)c1` ? 88
